Origin of measurements: patent US6875741

Target: T1, soluble human insulin receptor-immunoglobulin heavy chain chimera (human, UniProt P06213 28-956)
T1 construct: extracellular domain; Heterotetramer; also called IR; sIR-Fc; not shown: immunoglobulin heavy chain constant domains replacing the transmembrane and intr
Assay: phage ELISA ratios compared
Readout: IR/IGF-1R ratio comparison
Answer with a number only.

Answered examples (5):
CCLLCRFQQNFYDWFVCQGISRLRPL [H2CA-2-B4-IGFR] = 0.3
FYDAIDQLVRGSARAGGTRD [R20α-3-20E2-IR] = 0.1
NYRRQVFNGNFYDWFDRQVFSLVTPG [H2CA-3-D8-IGFR] = 0.3
RGIVAMVEATEVGSDHDPFYHKLSELVQGS [B6Hα-2-C7-IR] = 0.1
ICTGQGFYQVLCGLLRGTSAR [20E2B-2-B3-IGFR] = 0.1

Bench note: what IR/IGF-1R ratio comparison did VGTVAGFYDAIAQLVARASRV [20E2A-3-C7-IGFR] show?
0.2

Input FRTLAAQHDSFYDWFDRQVSGAAGER [H2CA-3-C11-IGFR]
0.5
